These data points were gathered from ChEMBL document CHEMBL3808336.

tgt: Carbonic anhydrase 9 (Homo sapiens, UniProt Q16790)
experimentalDetails: Inhibition of recombinant human carbonic anhydrase 9 preincubated for 15 min to 72 hrs by stopped flow CO2 hydrase assay
Below, each entry is listed alongside its reported pKi.
The value called pKi is obtained by taking minus log10 of the concentration in mol/L.

{"smiles": "c1ccc(-c2nn(-c3ccccc3)cc2-c2nc3ccccc3[nH]2)cc1", "pKi": 7.25}

Q: Tell me reported pKi for `NS(=O)(=O)c1ccc(-n2cc(-c3nc4ccccc4[nH]3)c(-c3ccc(Cl)cc3)n2)cc1` , tested with Carbonic anhydrase 9 (Homo sapiens, UniProt Q16790).
Ans: 7.15

Q: Tell me reported pKi for `COc1ccc(-c2nn(-c3ccc(S(N)(=O)=O)cc3)cc2-c2nc3ccccc3[nH]2)cc1` , tested with Carbonic anhydrase 9 (Homo sapiens, UniProt Q16790).
Ans: 6.26

Q: Tell me reported pKi for `NS(=O)(=O)c1ccc(-n2cc(-c3nc4ccccc4[nH]3)c(-c3ccc(F)cc3)n2)cc1` , tested with Carbonic anhydrase 9 (Homo sapiens, UniProt Q16790).
Ans: 7.13

Q: Tell me reported pKi for `Cc1ccc(-c2nn(-c3ccccc3)cc2-c2nc3ccccc3[nH]2)cc1` , tested with Carbonic anhydrase 9 (Homo sapiens, UniProt Q16790).
Ans: 7.63

Q: Tell me reported pKi for `NS(=O)(=O)c1ccc(-n2cc(-c3nc4ccccc4[nH]3)c(-c3ccc(Br)cc3)n2)cc1` , tested with Carbonic anhydrase 9 (Homo sapiens, UniProt Q16790).
Ans: 6.19

Q: Tell me reported pKi for `Clc1ccc(-c2nn(-c3ccccc3)cc2-c2nc3ccccc3[nH]2)cc1` , tested with Carbonic anhydrase 9 (Homo sapiens, UniProt Q16790).
Ans: 8.12

Q: Tell me reported pKi for `Brc1ccc(-c2nn(-c3ccccc3)cc2-c2nc3ccccc3[nH]2)cc1` , tested with Carbonic anhydrase 9 (Homo sapiens, UniProt Q16790).
Ans: 7.26

Q: Tell me reported pKi for `COc1ccc(-c2nn(-c3ccccc3)cc2-c2nc3ccccc3[nH]2)cc1` , tested with Carbonic anhydrase 9 (Homo sapiens, UniProt Q16790).
Ans: 7.31

Q: Tell me reported pKi for `NS(=O)(=O)c1ccc(-n2cc(-c3nc4ccccc4[nH]3)c(-c3ccccc3)n2)cc1` , tested with Carbonic anhydrase 9 (Homo sapiens, UniProt Q16790).
Ans: 7.60

###

Below, each entry is listed alongside its reported pKi.
tgt: UniProt P00918
experimentalDetails: Inhibition of recombinant human carbonic anhydrase 2 preincubated for 15 min to 72 hrs by stopped flow CO2 hydrase assay
pKi: −log10 of the molar value.

Worked cases, pKi given:
{"smiles": "Clc1ccc(-c2nn(-c3ccccc3)cc2-c2nc3ccccc3[nH]2)cc1", "pKi": "< 4.40"}
{"smiles": "Cc1ccc(-c2nn(-c3ccccc3)cc2-c2nc3ccccc3[nH]2)cc1", "pKi": "< 4.40"}
{"smiles": "Fc1ccc(-c2nn(-c3ccccc3)cc2-c2nc3ccccc3[nH]2)cc1", "pKi": "< 4.40"}
{"smiles": "Brc1ccc(-c2nn(-c3ccccc3)cc2-c2nc3ccccc3[nH]2)cc1", "pKi": "< 4.40"}
{"smiles": "c1ccc(-c2nn(-c3ccccc3)cc2-c2nc3ccccc3[nH]2)cc1", "pKi": "< 4.40"}

Consider now this further compound.
Q: For `COc1ccc(-c2nn(-c3ccccc3)cc2-c2nc3ccccc3[nH]2)cc1` , what is its reported pKi?
Ans: < 4.40
